Tested on: UO-31
ASSAY OVERVIEW: NCI tumour cell line growth inhibition, 48 h
Active and inactive are the calls of the source. Cut-off read from the data, not from the text of the source: active = GI50 up to about 1.1 µM and inactive = higher.
The following molecules are listed with their measured GI50 values.

Recorded GI50, per entry:
C=CCNC(=S)N/N=C1\C(=O)N(CN2CCOCC2)c2ccc([N+](=O)[O-])cc21 = 6.18 µM (inactive)
O=C(O)[C@H](Cc1ccccc1)NCCN1CCC[C@H]1C(=O)O = 32.4 µM (inactive)
COc1c(C)c(C/C=C(\C)CCCCO[Si](C(C)C)(C(C)C)C(C)C)c(OC)c2ccccc12 = > 100 µM (inactive)
c1ccc2sc(SCN(C3CCCCC3)C3CCCCC3)nc2c1 = > 100 µM (inactive)
COC(=O)c1cc2ccc(N)nc2[nH]c1=O = > 100 µM (inactive)

Tell me the measured GI50 of Cc1cc(=O)[nH]c2cc(NC(=O)C(C)NC(=O)C(C)NC(=O)C(C)NC(=O)OC(C)(C)C)ccc12 (stereo not given) , please.
> 15 µM (inactive)

Any idea what GI50 was measured for Cc1cc2nc(O)c(C(C)C(=O)c3ccc(Cl)cc3)nc2cc1C (stereo not given) ?
46.9 µM (inactive)

Dear colleague, I am looking for the recorded GI50 of the following molecule: `CCOc1cc2c(cc1OC)c[n+](C)c1c3cc(OC)c(OC)cc3ccc21`
> 100 µM (inactive)

Which GI50 is reported for this molecule? `O=C1NCCCNCCCNCCCNC(=O)c2cccc1n2`
> 100 µM (inactive)

I am curious: what GI50 value has been reported for CC(=O)Nc1ccc(C(=O)NN2C(=O)CSC2c2ccc(O)cc2)cc1 (stereo not given) ?
> 100 µM (inactive)

###

System: RXF 393
ASSAY OVERVIEW: NCI tumour cell line growth inhibition, 48 h
The source made the active and inactive calls. No stated cut-off is given here; in the data, active = GI50 up to about 1.1 µM and inactive = higher.
ASSAY ENDPOINT: GI50

# example entries with known answers
C#C[C@]1(O)CC[C@H]2[C@@H]3CCC4=C/C(=N/OC(=O)c5cccc6c(=O)c7ccccc7[nH]c56)CC[C@@H]4[C@H]3CC[C@@]21C = > 100 µM (inactive)
CN(C)C(=O)CC(C(=O)O)c1c[nH]c2ccccc12 (configuration not stated) = 10.2 µM (inactive)
CC(C)(C)OC(=O)NC(Cc1ccc(O)cn1)C(=O)O (configuration not stated) = > 100 µM (inactive)
COc1cc2[nH]c(=O)c3cc(-c4ccccc4)cc4c(Cl)nc(c1OC)c2c43 = 23.3 µM (inactive)
CC1(c2cccc3c2C2(O)C=CC4(CCC32)OCCO4)OCCO1 (configuration not stated) = > 100 µM (inactive)
CC1Cc2c(N)nc(NN)nc2NC1=O (configuration not stated) = > 100 µM (inactive)
COC(=O)c1cc2ccc(N)nc2[nH]c1=O = > 100 µM (inactive)
COc1cc(OC)c2nc(C)c(CCCl)c(Cl)c2c1 = > 100 µM (inactive)
COc1ccc(/C=C2/N/C(=N\N=C/C(O)C(O)C(O)CO)NC2=O)cc1 (configuration not stated) = > 100 µM (inactive)
COC(=O)C1Cc2ccc(O)c(O)c2CN1 (configuration not stated) = > 100 µM (inactive)

Dear colleague, I am looking for the recorded GI50 of the following compound: `CC(C)NC(=O)OCc1c(COC(=O)NC(C)C)n(C)c2c1ccc1ccsc12`
6.98 µM (inactive)

Query (compound): O=C(CC1(O)C(=O)Nc2c(Cl)cc(Cl)cc21)c1ccc2ccccc2c1 (configuration not stated) ; field requested: GI50
8.17 µM (inactive)

###

Below, each of the compounds is paired with its reported GI50 value.
Test system: SNB-19
ASSAY OVERVIEW: NCI tumour cell line growth inhibition, 48 h
Calls of active or inactive are those of the source. No stated cut-off is given here; in the data, active = GI50 up to about 1.1 µM and inactive = higher.

Some solved cases for reference:
CS/C(C#N)=C(\C#N)SC = 25.7 µM (inactive)
CCOC(=O)C1=C(C)NC(=O)NC1c1coc2cc(C)cc(C)c2c1=O (centres undefined) = 90.2 µM (inactive)
CCCCCc1cc2c(cc1O)CC[C@@H]1[C@@H]2CC[C@]2(C)[C@@H](O)CC[C@@H]12 = 18.8 µM (inactive)
COc1ccc(O)c(C#N)c1C#N.COc1ccc(OC)c(C#N)c1C#N = > 100 µM (inactive)
COC1CC(OC2C(C)OC(OC3C(C)OC(OC4C(C)OC(O[C@H]5CC[C@@]6(C)C(=CC[C@]7(O)[C@@H]6C[C@@H](OC(=O)/C=C(\C)C(C)C)[C@@]6(C)[C@]7(O)CC[C@@]6(O)C(C)=O)C5)CC4OC)CC3OC)CC2OC)OC(C)C1O (some centres undefined) = > 12.5 µM (inactive)
CCOC(=O)c1nc2cc(F)cc(F)c2[nH]c1=O = > 100 µM (inactive)

// lookup GI50 for `CNC(=O)OCc1c(CO)nc(SC)n1C`
> 100 µM (inactive)

Consider the compound shown here: Cc1ccc2c(c1)CC1(Cc3ccccc3C1=O)C2=O (centres undefined) What is its recorded GI50?
> 100 µM (inactive)

// query GI50 value for entry `Cc1cn(Cc2ccccc2CCl)c(=O)[nH]c1=O`
12.3 µM (inactive)

###

System: SW-620
ASSAY OVERVIEW: NCI tumour cell line growth inhibition, 48 h
Activity calls are given as the source filed them. No stated cut-off is given here; in the data, active = GI50 up to about 1.1 µM and inactive = higher.
Reported GI50 values follow for various molecules

CCCCC(=O)Nc1ccc2cc(C(=O)OC)c(Cl)nc2n1 = > 100 µM (inactive)
Cn1cnc([N+](=O)[O-])c1Sc1nccn1-c1cccc2ccccc12 = 26.2 µM (inactive)
C=C(COC(C)=O)CC(/C=C(\C)CC/C=C(\C)CO)OC(C)=O (stereo unspecified) = > 100 µM (inactive)
COC(=O)CC[N+]1([O-])CC1 = > 100 µM (inactive)
CC1(C)OC2OC(/C=C/[N+](=O)[O-])C3OC(C)(C)OC3C2O1 (stereo unspecified) = 3.27 µM (inactive)

Entry CC(=O)OCC1OC(N2C(C)=C(C(C)=O)C(c3ccco3)C(C#N)=C2S)C(OC(C)=O)C(OC(C)=O)C1OC(C)=O (stereo unspecified) : reported GI50 = ?
> 100 µM (inactive)

Return reported GI50; argument: `O=[N+]([O-])c1ccc(Cc2nc3cc4ccccc4cc3[nH]2)cc1C(F)(F)F`
19.8 µM (inactive)

Record request: GI50 value, item CC(C)=CC1C(C(=O)O)C1(C)C (stereo unspecified)
> 750 µM (inactive)

Fill in: GI50 of `COc1ccc(Nc2nc3c(N)cc(C(F)(F)F)cc3nc2-c2ccccc2)cc1OC` is ___
57.4 µM (inactive)

Look at this molecule and give its reported GI50. OCC(O)CNc1ncnc2ccccc12 (stereo unspecified)
> 100 µM (inactive)

###

System: MDA-MB-231
ASSAY OVERVIEW: NCI tumour cell line growth inhibition, 48 h
The source made the active and inactive calls. Rule as the data show it: active = GI50 up to about 1.1 µM and inactive = higher.
ASSAY ENDPOINT: GI50

In the examples that follow, each entry is paired with its recorded GI50.
CC(=O)OCc1ccc2oc(=O)c(C(=O)Oc3cccc(Cl)c3)cc2c1 = 32.4 µM (inactive)
CCc1cn(C2CC(CO)C(CO)S2)c(=O)[nH]c1=O (stereo unspecified) = > 100 µM (inactive)

Give its GI50 value. Item: `COc1ccc(C(=O)O[C@@H]2CCN3CC[C@H](C)[C@H]23)cc1`
> 100 µM (inactive)

Look at this compound and give its reported GI50. COc1cc(C2SCC(=O)N2NC(=O)c2ccc(NC(C)=O)cc2)cc(OC)c1OC (stereo unspecified)
> 100 µM (inactive)

Using the record for `O=[N+]([O-])c1ccc(/C=N/n2c(CO)nc3ccccc32)o1` , report its GI50.
5.36 µM (inactive)

Name the reported GI50 value associated with the compound COc1cccc(N2C(=O)CS(=O)(=O)C2c2cccc(Oc3ccccc3)c2)c1 (stereo unspecified)
30.4 µM (inactive)

Consider the compound shown here: `O=C(/C=C/C(=O)N1CCCC1)N1CCCC1` What is its recorded GI50?
> 100 µM (inactive)

For NCCCCNCCCNC(=O)CNC(=O)CC(O)C(N)CCCC(NC(=O)C(CN)NC(=O)C(O)CNC(=O)CC(N)c1ccc(O)cc1)C(=O)O (stereo unspecified) , what is its reported GI50?
> 10 µM (inactive)

Item under review: `CC(=O)c1c(=O)n(-c2ccc(C)cc2)c(O)c2c(N)n[nH]c12` . Reported GI50?
> 100 µM (inactive)

Need GI50, item OC(Cc1cnnc2ccccc12)C(Cl)(Cl)Cl (stereo unspecified)
> 10 µM (inactive)

Request the reported GI50 associated with Cc1cn(C2CC(OP(=O)(O)OCC3OC(n4c[n+]([BH2-]C#N)c5c(=O)[nH]c(N)nc54)CC3O)C(CO)O2)c(=O)[nH]c1=O (stereo unspecified)
> 100 µM (inactive)

Would you kindly share the measured GI50 for `N#C[C@](CO)(NC(=O)OCc1ccccc1)C(F)F` ?
> 100 µM (inactive)

Reported GI50, compound `CCc1ccccc1/N=N/C(=O)NNc1ccccc1CC` : ____
21.3 µM (inactive)

What value of GI50 has been recorded for this entry: `Cn1cnc([N+](=O)[O-])c1Sc1nncc2[nH]cnc12`
> 100 µM (inactive)
